- experimental_target: UniProt:Q9UBN7
- measurement_notes: Inhibition of HDAC6
Task for the reader: assign each of the following molecules its reported IC50.
Form entry: value (nM) — number only.

Here O=C(c1ccc(-c2ncc(-c3ccccc3)s2)s1)C(F)(F)F was tested on UniProt:Q9UBN7, and its IC50 came to 1350

The molecule O=C(c1ccc(-c2nnc(-c3ccccc3)o2)s1)C(F)(F)F , tested on UniProt:Q9UBN7, showed IC50 of 330

Entry O=C(c1ccc(-c2nc(-c3cccs3)no2)s1)C(F)(F)F : IC50 on UniProt:Q9UBN7 = 670

Entry Cc1ccc(-c2noc(-c3ccc(C(=O)C(F)(F)F)s3)n2)cc1 ; assay system UniProt:Q9UBN7; IC50 recorded at 860

---

Kindly supply the reported IC50 values for the records listed here.
- experimental_target: Histone deacetylase 4 (Homo sapiens, UniProt P56524)
- Sequence (P56524 whole entry, the tested form may be a part): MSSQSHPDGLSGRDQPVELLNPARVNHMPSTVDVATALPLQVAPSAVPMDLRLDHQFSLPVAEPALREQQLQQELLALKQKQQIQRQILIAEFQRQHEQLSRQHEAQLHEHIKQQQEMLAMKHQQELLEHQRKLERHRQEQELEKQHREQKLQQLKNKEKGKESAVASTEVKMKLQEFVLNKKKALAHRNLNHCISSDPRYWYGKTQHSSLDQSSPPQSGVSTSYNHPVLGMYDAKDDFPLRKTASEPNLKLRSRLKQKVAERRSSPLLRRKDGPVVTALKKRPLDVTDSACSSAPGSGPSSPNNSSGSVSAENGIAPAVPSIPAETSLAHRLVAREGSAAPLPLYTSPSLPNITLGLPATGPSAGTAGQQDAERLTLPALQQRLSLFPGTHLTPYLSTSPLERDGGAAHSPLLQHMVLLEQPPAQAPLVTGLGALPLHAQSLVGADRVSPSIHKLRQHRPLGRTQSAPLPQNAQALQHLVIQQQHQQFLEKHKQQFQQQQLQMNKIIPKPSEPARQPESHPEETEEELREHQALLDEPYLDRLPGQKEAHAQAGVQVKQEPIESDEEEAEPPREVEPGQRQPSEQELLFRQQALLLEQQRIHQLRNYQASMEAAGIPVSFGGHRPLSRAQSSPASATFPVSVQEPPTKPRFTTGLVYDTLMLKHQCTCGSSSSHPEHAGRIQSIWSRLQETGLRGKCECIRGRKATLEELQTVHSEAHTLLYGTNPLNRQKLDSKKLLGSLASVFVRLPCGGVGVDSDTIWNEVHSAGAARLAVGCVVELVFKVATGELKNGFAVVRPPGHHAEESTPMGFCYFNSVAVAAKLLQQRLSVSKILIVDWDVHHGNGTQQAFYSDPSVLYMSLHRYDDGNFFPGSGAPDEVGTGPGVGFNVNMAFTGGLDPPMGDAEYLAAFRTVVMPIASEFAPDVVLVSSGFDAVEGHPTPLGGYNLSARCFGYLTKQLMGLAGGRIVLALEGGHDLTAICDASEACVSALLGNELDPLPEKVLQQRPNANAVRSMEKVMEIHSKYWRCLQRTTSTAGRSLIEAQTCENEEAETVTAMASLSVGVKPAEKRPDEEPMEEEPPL
- measurement_notes: Inhibition of His-tagged HDAC4 catalytic domain expressed in Escherichia coli
Please give a number only; it is taken to be in nM.

IC50 value, target or system Histone deacetylase 4 (Homo sapiens, UniProt P56524), for O=C(c1ccc(-c2nc(-c3ccncc3)no2)s1)C(F)(F)F : 590

Assay Histone deacetylase 4 (Homo sapiens, UniProt P56524), sample O=C(c1ccc(-c2ncc(-c3ccccc3)s2)s1)C(F)(F)F , IC50 read: 1500

Histone deacetylase 4 (Homo sapiens, UniProt P56524) assay, compound O=C(c1ccc(-c2nc(-c3cccs3)no2)s1)C(F)(F)F , recorded IC50 = 95

I looked up O=C(c1ccc(-c2nc(-c3ccc(Cl)cc3Cl)no2)s1)C(F)(F)F and its IC50 for Histone deacetylase 4 (Homo sapiens, UniProt P56524) was 240

Cc1ccc(-c2noc(-c3ccc(C(=O)C(F)(F)F)s3)n2)cc1 tested on Histone deacetylase 4 (Homo sapiens, UniProt P56524) gave IC50: 110

# value of IC50, Histone deacetylase 4 (Homo sapiens, UniProt P56524), item O=C(c1ccc(-c2nnc(-c3ccccc3)o2)s1)C(F)(F)F = 420

---

- measurement_notes: Selectivity for His-tagged HDAC4 catalytic domain over HDAC1
measurement_name: Ratio IC50

Lookup result for O=C1COc2ccccc2N1Cc1noc(-c2ccc(C(=O)C(F)(F)F)s2)n1 ; measured Ratio IC50: > 75

Data point: O=C(Cc1noc(-c2ccc(C(=O)C(F)(F)F)s2)n1)N1CCCC1 ; Ratio IC50 = > 75

Just so you know, measured Ratio IC50 for CS(=O)(=O)Cc1noc(-c2ccc(C(=O)C(F)(F)F)s2)n1 came out at > 70

O=C(c1ccc(-c2nc(CS(=O)(=O)c3cccs3)no2)s1)C(F)(F)F yielded Ratio IC50 of > 100

Reported Ratio IC50 of CCCS(=O)(=O)Cc1noc(-c2ccc(C(=O)C(F)(F)F)s2)n1 : > 70

Notebook: O=C(c1ccc(-c2nc(Cc3cccs3)no2)s1)C(F)(F)F , Ratio IC50 read as 70

---

- experimental_target: Histone deacetylase 4 (Homo sapiens)
Hi! Just check whether IC50 is below 60 nM. Below gives criterion met, equal or above gives criterion not met.

Req: Find out if reported IC50 for O=C(NCc1ccccc1)c1ccc(C(=O)C(F)(F)F)s1 is less than 60 nM
Resp: criterion not met

Req: Hello, is IC50 of the following compound strictly smaller than 60 nM? Cc1ccc(-c2nnc(-c3ccc(C(=O)C(F)(F)F)s3)o2)cc1
Resp: criterion not met

Req: IC50 under 60 nM? Item: Cc1noc(-c2ccc(C(=O)C(F)(F)F)s2)n1
Resp: criterion not met

Req: Please indicate whether the reported IC50 of O=C1COc2ccccc2N1Cc1noc(-c2ccc(C(=O)C(F)(F)F)s2)n1 is strictly below 60 nM.
Resp: criterion met

Req: Strictly below 60 nM: is that where IC50 of O=C(c1ccc(-c2nc(-c3ccc(F)cc3F)no2)s1)C(F)(F)F sits?
Resp: criterion not met

Req: Hi there! Is IC50 for CCCS(=O)(=O)Cc1noc(-c2ccc(C(=O)C(F)(F)F)s2)n1 below 60 nM, do you know?
Resp: criterion met

Req: Is the reported IC50 for CS(=O)(=O)Cc1noc(-c2ccc(C(=O)C(F)(F)F)s2)n1 strictly below 60 nM?
Resp: criterion met

Req: Does this compound meet the criterion IC50 < 60 nM? O=C(c1ccc(-c2nc(-c3ccc(F)cc3)no2)s1)C(F)(F)F
Resp: criterion not met

---

What pIC50 was measured for each of the following?
Please keep in mind that pIC50 is minus log10 of the molar concentration; only the number is needed.

Histone deacetylase 1 (Homo sapiens, UniProt Q13547) pIC50 of O=C(c1ccc(-c2nc(-c3cccnc3)no2)s1)C(F)(F)F is 5.66

Tested system Histone deacetylase 1 (Homo sapiens, UniProt Q13547); pIC50 recorded for O=C(c1ccc(-c2nc(-c3ccccn3)no2)s1)C(F)(F)F was 5.55

Measured pIC50 (Histone deacetylase 1 (Homo sapiens, UniProt Q13547)), entry O=C(c1ccc(-c2nc(Cc3cccs3)no2)s1)C(F)(F)F : 6.00

Hey, Histone deacetylase 1 (Homo sapiens, UniProt Q13547) data for O=C(NCc1ccccc1)c1ccc(C(=O)C(F)(F)F)s1 : pIC50 came out at 6.33

pIC50 on Histone deacetylase 1 (Homo sapiens, UniProt Q13547) for O=C1COc2ccccc2N1Cc1noc(-c2ccc(C(=O)C(F)(F)F)s2)n1 is 5.93

Kindly note: Histone deacetylase 1 (Homo sapiens, UniProt Q13547), O=C(c1ccc(-c2nc(CS(=O)(=O)c3cccs3)no2)s1)C(F)(F)F , pIC50 value reported: 5.41

Tested on Histone deacetylase 1 (Homo sapiens, UniProt Q13547), the item O=C(c1ccc(-c2nc(-c3ccc(F)cc3F)no2)s1)C(F)(F)F showed pIC50 equal to 5.38

Field pIC50 (system: Histone deacetylase 1 (Homo sapiens, UniProt Q13547)) for entry Cc1noc(-c2ccc(C(=O)C(F)(F)F)s2)n1 = 5.12

Measured on Histone deacetylase 1 (Homo sapiens, UniProt Q13547), O=C(c1ccc(-c2nnc(-c3cccs3)o2)s1)C(F)(F)F has a documented pIC50 of 5.59

Tested system Histone deacetylase 1 (Homo sapiens, UniProt Q13547); pIC50 recorded for O=C(c1ccc(-c2nc(COc3ccc(-c4nnco4)cc3)no2)s1)C(F)(F)F was 5.32

Tested on Histone deacetylase 1 (Homo sapiens, UniProt Q13547): O=C(c1ccc(-c2nc(-c3cccc(C(F)(F)F)c3)no2)s1)C(F)(F)F . Observed pIC50: 4.76

GET /values?item= Cc1ccc(-c2nnc(-c3ccc(C(=O)C(F)(F)F)s3)o2)cc1 &system= Histone deacetylase 1 (Homo sapiens, UniProt Q13547) returns pIC50: 5.74

---

- measurement_notes: Metabolic stability in S9 fraction of human HCT116 cells assessed as half life in presence of NADPH and regenerating system
- Format: ADME, cell-based, HCT-116
The label 1 (yes) is reserved for half-life strictly under 40 min; 0 (no) covers values equal to or above it.

Req: Lab note: confirm whether the reported half-life for this compound is below 40 min, equality not counting. compound: Cc1noc(-c2ccc(C(=O)C(F)(F)F)s2)n1
Resp: 0 (no)

Req: Here's an entry: CN(Cc1ccccc1)C(=O)c1ccc(C(=O)C(F)(F)F)s1 . Is its half-life below 40 min?
Resp: 1 (yes)

Req: I wonder whether O=C(c1ccc(-c2nc(Cc3cccs3)no2)s1)C(F)(F)F has half-life below 40 min. Can you tell?
Resp: 1 (yes)

Req: Determine if O=C1COc2ccccc2N1Cc1noc(-c2ccc(C(=O)C(F)(F)F)s2)n1 shows half-life strictly lower than 40 min.
Resp: 1 (yes)

Req: Consider O=C(c1ccc(-c2nc(COc3ccc(-c4nnco4)cc3)no2)s1)C(F)(F)F . Does its half-life lie strictly below 40 min?
Resp: 1 (yes)

Req: Please determine if O=C(c1ccc(-c2nc(-c3ccc(F)cc3F)no2)s1)C(F)(F)F is below 40 min in terms of half-life.
Resp: 0 (no)

Req: # check: half-life < 40 min for O=C(c1ccc(-c2nc(CS(=O)(=O)c3cccs3)no2)s1)C(F)(F)F
Resp: 0 (no)

Req: is_below(half-life, 40 min) for CS(=O)(=O)Cc1noc(-c2ccc(C(=O)C(F)(F)F)s2)n1 ?
Resp: 0 (no)

Req: Does the reported half-life of CCCS(=O)(=O)Cc1noc(-c2ccc(C(=O)C(F)(F)F)s2)n1 stay below 40 min?
Resp: 0 (no)

Req: Just wondering, is half-life of O=C(c1ccc(-c2nc(CS(=O)(=O)Cc3ccc(F)cc3)no2)s1)C(F)(F)F below 40 min?
Resp: 1 (yes)

---

- experimental_target: Protein deacetylase HDAC6 (Homo sapiens, UniProt Q9UBN7)
- Sequence (Q9UBN7 whole entry): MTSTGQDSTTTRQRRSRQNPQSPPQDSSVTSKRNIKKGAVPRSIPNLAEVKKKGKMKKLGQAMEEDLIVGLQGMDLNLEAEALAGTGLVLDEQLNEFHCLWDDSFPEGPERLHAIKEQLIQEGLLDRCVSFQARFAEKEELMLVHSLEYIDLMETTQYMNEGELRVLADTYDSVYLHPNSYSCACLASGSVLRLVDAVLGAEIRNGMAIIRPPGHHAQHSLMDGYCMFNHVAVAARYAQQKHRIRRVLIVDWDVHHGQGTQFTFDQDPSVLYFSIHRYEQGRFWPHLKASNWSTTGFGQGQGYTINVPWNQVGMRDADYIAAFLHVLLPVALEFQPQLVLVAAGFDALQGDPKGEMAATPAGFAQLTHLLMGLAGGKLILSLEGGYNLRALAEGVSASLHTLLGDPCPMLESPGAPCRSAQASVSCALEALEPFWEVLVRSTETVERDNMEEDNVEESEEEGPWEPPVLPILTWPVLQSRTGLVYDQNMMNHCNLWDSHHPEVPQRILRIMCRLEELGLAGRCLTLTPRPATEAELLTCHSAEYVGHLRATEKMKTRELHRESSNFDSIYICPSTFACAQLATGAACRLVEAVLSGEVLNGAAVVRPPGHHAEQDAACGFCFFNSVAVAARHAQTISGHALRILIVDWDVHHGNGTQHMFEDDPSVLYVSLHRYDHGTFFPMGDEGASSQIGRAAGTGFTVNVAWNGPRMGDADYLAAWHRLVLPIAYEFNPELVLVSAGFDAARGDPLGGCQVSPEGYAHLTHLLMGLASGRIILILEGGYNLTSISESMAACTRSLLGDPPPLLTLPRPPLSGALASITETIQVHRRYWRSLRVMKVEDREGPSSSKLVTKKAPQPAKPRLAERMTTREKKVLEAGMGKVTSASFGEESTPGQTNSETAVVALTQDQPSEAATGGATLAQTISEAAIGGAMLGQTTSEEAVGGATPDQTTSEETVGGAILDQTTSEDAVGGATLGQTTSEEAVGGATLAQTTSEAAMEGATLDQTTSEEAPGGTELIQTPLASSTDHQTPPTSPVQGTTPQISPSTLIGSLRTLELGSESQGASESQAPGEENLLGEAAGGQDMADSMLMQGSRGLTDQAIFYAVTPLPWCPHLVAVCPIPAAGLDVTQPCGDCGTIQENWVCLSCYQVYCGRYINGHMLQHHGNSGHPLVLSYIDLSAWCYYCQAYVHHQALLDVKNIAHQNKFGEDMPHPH
- measurement_notes: Inhibition of HDAC6
measurement_name: IC50 (µM)
Please give a number only; it is taken to be in µM.

Cc1ccc(-c2nnc(-c3ccc(C(=O)C(F)(F)F)s3)o2)cc1 has a reported IC50 of 0.6

Entry under test: O=C(Cc1noc(-c2ccc(C(=O)C(F)(F)F)s2)n1)N1CCCC1 . Its IC50 was 0.71

Entry O=C(c1ccc(-c2nc(CS(=O)(=O)Cc3ccc(F)cc3)no2)s1)C(F)(F)F — recorded IC50 = 0.7

Record summary for Cc1cccc(-c2noc(-c3ccc(C(=O)C(F)(F)F)s3)n2)c1 : reported IC50 = 0.68

// sample O=C(c1ccc(-c2nc(-c3ccccc3)no2)s1)C(F)(F)F , its IC50 was 0.58

Form: molecule = O=C(c1ccc(-c2nc(-c3ccncc3)no2)s1)C(F)(F)F ; IC50 = 0.57
